Entry source: patent US20260069689A1

# test_system: SARS-COV-2 RBD extracellular domain expressed with a C-terminal mouse IgG2a Fc (SARS-CoV-2)
# protocol_description: Biacore SPR, mAb captured on anti-hFc, 37 C
Entries and their measured koff follow.
Value expressed in s⁻¹; do not type the unit.

Solved cases (2 shown):
binder	units_symbol	koff
mAb15170 (antibody, V domains shown) VH: EVQLVESGGGLVQPGGSLRLSCAATGITVSSNYMSWVRQAPGKGLEWVSLIYSGGSTFYADSVKGRFTISRHNSKNTLYLQMSSLRAEDTAVYYCARDLVDFGMDVWGQGTTVTVSS VL: DIQLTQSPSSLSASVGDRVTITCRASQGISNYLAWYQQKPGKAPKLLIYAASTLQSGVPSRFSGSGSGTDFTLTISSLQPEDFGTYYCQQLNSDSPTFGQGTKVEIKR	s⁻¹	2.41e-05
mAb15150 (antibody, V domains shown) VH: EVQLVETGGGLIQPGGSLRLSCAAPGFIVSSNYMSWVRQAPGKGLEWVSLLYPGGSTYYADSVKGRFTISRDNSKNTLYLQMNSLRADDTAVYYCARVLPIVEDHFDYWGQGTLVTVSS VL: DIQLTQSPSFLSASVGDRVTITCRASQGMSSYLAWYQKKPGKAPKLLIYGATILQSGVPSRFSGSGSGTEFTLTISSLQPEDFATYYCQQLNSDPLYMYTFGQGTKLEIKR	s⁻¹	2.8e-05

Let us examine a further case.
Prompt line: What value of koff has been reported for the following binder? mAb14232 (antibody, V domains shown) VH: QITLKESGPTLVKPTQTLTLTCTFSGFSLSASGVGVGWIRQPPGKALEWLALIYWDDDKRYSPSLKSRLTITKDTSKNQVVLTMTNMDPVDTATYYCAQHKVATIFDYWGQGTLVTVSS VL: QSALTQPPSASGSPGQSVTISCTATSSDVGNYNYVSWYQQHPGKAPKLMIYEVTKRPSGVPDRFSGSKSGNTASLTVSGLQAEDEADYYCSSYAGSWGVFGGGTKLTVLG
Response line: 0.00188
